ASSAY PROCEDURE: log P by LC-MS, method [b], acid range pH 2.7
Type: physicochemical
CONDITION CONTEXT: pH 2.7

{"COMPOUND": "CN(c1nc(Nc2ccc(F)c(N3CCCC3=O)c2)ncc1Cl)C1CC1", "log p": "2.53[b]"}
{"COMPOUND": "CC1CC(=O)N(c2cccc(Nc3ncc(Cl)c(NC4CCC4)n3)c2)C1=O (centres unmarked)", "log p": "1.76[b]"}
{"COMPOUND": "CC1CCC(=O)N1c1cccc(Nc2ncc(Cl)c(NC3CC3)n2)c1 (centres unmarked) [Example 126]", "log p": "2.59[b]"}
{"COMPOUND": "O=C1OCCN1c1cccc(Nc2ncc(Br)c(NC3CCC3)n2)c1", "log p": "1.8[b]"}
{"COMPOUND": "CN1CCN(c2cccc(Nc3ncc(Cl)c(NC4CC4(C)C)n3)c2)C1=O (centres unmarked)", "log p": "1.93[b]"}
